# method.summary: NCI Yeast Anticancer Drug Screen. Data for the bub3 strain (AID 167)
# applied.conditions: S. cerevisiae bub3 mutant strain, at 50.0 µM, stronger effect = higher value
Compounds without any hit were thinned out: in the full panel of roughly 79,000, 15% have a hit. Active and inactive are the calls of the source. Cut-off read from the data, not from the text of the source: active = growth inhibition above about 70%; inactive = the rest.
Documented growth inhibition across a set of molecules

See these solved cases before continuing.
>>> result("O=C(NC1CCCCC1)OCc1c(COC(=O)NC2CCCCC2)c(-c2ccc(Cl)c(Cl)c2)n2c1CCC2")
"-5.3% (inactive)"
>>> result("CCOC(=O)c1[nH]c(C)c(C(=O)O)c1C")
"-23.8% (inactive)"
>>> result("O=c1cc2oc3cc(O)c(O)cc3c(-c3ccccc3O)c-2cc1O")
"41% (inactive)"

# input for lookup
q: Form field: reported growth inhibition of CC(=O)c1ccc(C)c(N)c1
a: -2.15% (inactive)

Cited source for all entries: PubChem BioAssay (NCI)
